Where do these numbers come from? They come from the RNAGym collection of RNA variant scans (doi:10.1126/science.aae0568).

B1: tRNA (parent)
chain: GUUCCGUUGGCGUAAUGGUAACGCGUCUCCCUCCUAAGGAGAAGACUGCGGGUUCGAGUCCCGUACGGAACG

Variants of: B1
Experiment: yeast fitness relative to wild type (ratio to wild type); higher = fitter; tRNA-Arg(CCU), competitive growth, 37 C, YPD
This sample holds only a part of the variants without activity.
Recorded yeast fitness, one value per entry.

Record excerpt, results attached:
# Sequence Entry, Reported Measurement
rows = [
    ("GUUCCGUUGGCGUAAUGGUAACGCGUCUCCCUCCUCCGGAGAAGACUGCGCGUUCGAGUCCCGUACGGAACG", "≤ 0.5"),
    ("GUUCCGUUGGCGUAAUGGUGACGCGUCUCCCUCCUAAGGAGCAGACUGCGGGUUCGAGUCCCGUACGGAGCG", 0.629),
    ("GUUCCGUUGGCGUAAUGGUAACGCGUCUCUCUCCUAAGGAGAAGUCUGCGGGUUCGAGUCCCGUACGGGACG", 0.566),
    ("GUUCCGUUGGCGUAAUGGUAACGCGUCUCCCUCCUAAGGAGAAGUCCGCGGGUUCGAGUCCCGUACGGAACG", 0.995),
    ("GCUUCGUUGGCGUAAUGGUACCGCGUCCCCACCCUAAGGAGAAGACUGCGGGUUCGAGUCCCGUACGGAACG", "≤ 0.5"),
    ("GUUCCGCUGGCGUAAUGGUAACGCGUCUCCCGCCUAAGGAGAAGACUGCGGGUUCGAGUCCCGUACGCAACG", "≤ 0.5"),
]

Suppose we examine the variant `GUUUCGUUGGCGUAAUGGUAACGCGUCUCCCUCCUAAGGAGAAGACUGCGGGUUCGAGUCCCGUACUGAACG` ; what yeast fitness value has been reported?
0.782

Note, next up: `GUUGCGUUGGCGUUAUGGUGCCGCGUCUCCCUCCUAAGGAGAAGACUGCGGGUUCGAGUCCCGUACGGAACG`
0.55

Note, next up: `GUUUCGUUGGCGUAAUGGUAACGCGUCUCCCUCCUAAGGAGAAGACUGCGGGUUCGACUCCCGUACGGUACG`
0.785

Note, next up: `GUUCCGUUGGCGUCAUGGUAACACGUCUCCCUCCUAAGGAGAAGUCUGCGGGUUCGAGUCUCGUACGGAACG`
0.782

Note, next up: `GUUCCGUUGGCGUGAUGGUAACGCGUCUUCCUCCUAGGGAGAAGACUGCGGGUUCGAGUCCCGUGCGGAACG`
≤ 0.5
